Assay: Half life in rat
Format: ADME
Conditions: in vivo
Observed Property: half-life
I'd appreciate it if you included the unit after the number.

Query C[C@H](CC[C@@H](O)C1CC1)[C@H]1CC[C@H]2[C@@H]3CC=C4C[C@@](C)(O)CC[C@]4(C)[C@H]3CC[C@]12C yields half-life of 1.8 h

Query C[C@H](CCCC(C)(C)O)[C@H]1CC[C@H]2[C@@H]3CC=C4C[C@@H](O)CC[C@]4(C)[C@H]3CC[C@]12C yields half-life of 0.38 h

Query C[C@H](CC[C@@H](O)C(F)(F)F)[C@H]1CC[C@H]2[C@@H]3CC=C4C[C@@](C)(O)CC[C@]4(C)[C@H]3CC[C@]12C yields half-life of 1.9 h

Query CC(C)[C@@H](O)CC[C@@H](C)[C@H]1CC[C@H]2[C@@H]3CC=C4C[C@@](C)(O)CC[C@]4(C)[C@H]3CC[C@]12C yields half-life of 1.6 h

Query CC(C)[C@@H](O)CC[C@@H](C)[C@H]1CC[C@H]2[C@@H]3CC=C4C[C@@H](O)CC[C@]4(C)[C@H]3CC[C@]12C yields half-life of 0.54 h

Query C[C@H](CC[C@@H](O)C1CCC1)[C@H]1CC[C@H]2[C@@H]3CC=C4C[C@@](C)(O)CC[C@]4(C)[C@H]3CC[C@]12C yields half-life of 0.84 h

Query CC(C)[C@H](O)CC[C@@H](C)[C@H]1CC[C@H]2[C@@H]3CC=C4C[C@@](C)(O)CC[C@]4(C)[C@H]3CC[C@]12C yields half-life of 2.2 h

---

Target: Glutamate NMDA receptor; GRIN1/GRIN2B (Homo sapiens, UniProt Q05586+Q13224)
Sequence (Q13224 whole entry, other chains not shown): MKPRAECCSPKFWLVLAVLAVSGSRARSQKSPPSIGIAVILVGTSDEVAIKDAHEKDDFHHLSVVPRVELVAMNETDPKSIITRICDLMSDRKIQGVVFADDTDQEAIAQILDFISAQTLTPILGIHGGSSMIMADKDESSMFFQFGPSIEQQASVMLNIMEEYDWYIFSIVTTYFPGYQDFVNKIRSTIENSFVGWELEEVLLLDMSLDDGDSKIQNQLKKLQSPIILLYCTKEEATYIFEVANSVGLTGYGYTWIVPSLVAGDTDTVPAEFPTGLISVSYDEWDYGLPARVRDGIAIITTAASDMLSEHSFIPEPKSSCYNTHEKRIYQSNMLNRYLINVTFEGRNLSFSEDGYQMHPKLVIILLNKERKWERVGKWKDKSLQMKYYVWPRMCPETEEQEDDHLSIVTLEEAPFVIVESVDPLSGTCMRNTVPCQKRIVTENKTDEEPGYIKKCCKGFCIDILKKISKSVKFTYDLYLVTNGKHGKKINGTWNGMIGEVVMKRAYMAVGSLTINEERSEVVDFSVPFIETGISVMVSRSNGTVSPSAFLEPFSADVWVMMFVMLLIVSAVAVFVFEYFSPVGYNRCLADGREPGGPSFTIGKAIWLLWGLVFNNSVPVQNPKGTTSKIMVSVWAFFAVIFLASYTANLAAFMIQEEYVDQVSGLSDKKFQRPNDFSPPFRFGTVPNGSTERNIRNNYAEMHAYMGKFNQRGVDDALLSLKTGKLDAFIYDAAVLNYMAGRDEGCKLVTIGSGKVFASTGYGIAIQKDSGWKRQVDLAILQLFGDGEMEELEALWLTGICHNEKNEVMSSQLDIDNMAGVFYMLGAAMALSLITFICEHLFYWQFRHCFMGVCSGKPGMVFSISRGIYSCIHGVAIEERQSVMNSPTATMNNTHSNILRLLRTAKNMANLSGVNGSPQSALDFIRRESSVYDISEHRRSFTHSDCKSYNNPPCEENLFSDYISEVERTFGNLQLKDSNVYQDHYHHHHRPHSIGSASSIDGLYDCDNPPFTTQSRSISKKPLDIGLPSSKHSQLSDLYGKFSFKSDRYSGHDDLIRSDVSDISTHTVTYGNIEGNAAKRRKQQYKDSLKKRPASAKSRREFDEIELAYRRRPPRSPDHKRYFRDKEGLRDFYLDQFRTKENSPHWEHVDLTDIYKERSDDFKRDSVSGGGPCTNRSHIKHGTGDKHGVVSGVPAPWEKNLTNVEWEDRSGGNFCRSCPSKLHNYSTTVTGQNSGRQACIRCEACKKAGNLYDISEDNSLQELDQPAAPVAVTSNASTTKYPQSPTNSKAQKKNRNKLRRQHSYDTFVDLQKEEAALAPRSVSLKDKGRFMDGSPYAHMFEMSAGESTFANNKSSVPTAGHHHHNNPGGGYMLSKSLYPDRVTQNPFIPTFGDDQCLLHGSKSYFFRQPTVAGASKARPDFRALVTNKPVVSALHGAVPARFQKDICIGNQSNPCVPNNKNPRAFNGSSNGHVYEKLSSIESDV
Assay: Positive allosteric modulation of recombinant human GluN1/GluN2B receptor stably expressed in HEK293 cells assessed as increase in glycine/L-glutamate-induced channel current at -70 mV holding potential by IonWork […] method
Observed Property: EC50 (nM)
Your answer should be a plain number; it is taken to be in nM.

Measured EC50 (Glutamate NMDA receptor; GRIN1/GRIN2B (Homo sapiens, UniProt Q05586+Q13224)), entry C[C@H](CCC(C)(C)O)[C@H]1CC[C@H]2[C@@H]3CC=C4C[C@@](C)(O)CC[C@]4(C)[C@H]3CC[C@]12C : 38

Measured EC50 (Glutamate NMDA receptor; GRIN1/GRIN2B (Homo sapiens, UniProt Q05586+Q13224)), entry C[C@H](CC[C@H](O)C1CC1)[C@H]1CC[C@H]2[C@@H]3CC=C4C[C@@](C)(O)CC[C@]4(C)[C@H]3CC[C@]12C : 170

Measured EC50 (Glutamate NMDA receptor; GRIN1/GRIN2B (Homo sapiens, UniProt Q05586+Q13224)), entry CC(C)[C@@H](O)CC[C@@H](C)[C@H]1CC[C@H]2[C@@H]3CC=C4C[C@@](C)(O)CC[C@]4(C)[C@H]3CC[C@]12C : 13

---

Molecular target: Glutamate NMDA receptor; GRIN1/GRIN2A (Homo sapiens, UniProt Q05586+Q12879)
Sequence (Q12879 whole entry, other chains not shown): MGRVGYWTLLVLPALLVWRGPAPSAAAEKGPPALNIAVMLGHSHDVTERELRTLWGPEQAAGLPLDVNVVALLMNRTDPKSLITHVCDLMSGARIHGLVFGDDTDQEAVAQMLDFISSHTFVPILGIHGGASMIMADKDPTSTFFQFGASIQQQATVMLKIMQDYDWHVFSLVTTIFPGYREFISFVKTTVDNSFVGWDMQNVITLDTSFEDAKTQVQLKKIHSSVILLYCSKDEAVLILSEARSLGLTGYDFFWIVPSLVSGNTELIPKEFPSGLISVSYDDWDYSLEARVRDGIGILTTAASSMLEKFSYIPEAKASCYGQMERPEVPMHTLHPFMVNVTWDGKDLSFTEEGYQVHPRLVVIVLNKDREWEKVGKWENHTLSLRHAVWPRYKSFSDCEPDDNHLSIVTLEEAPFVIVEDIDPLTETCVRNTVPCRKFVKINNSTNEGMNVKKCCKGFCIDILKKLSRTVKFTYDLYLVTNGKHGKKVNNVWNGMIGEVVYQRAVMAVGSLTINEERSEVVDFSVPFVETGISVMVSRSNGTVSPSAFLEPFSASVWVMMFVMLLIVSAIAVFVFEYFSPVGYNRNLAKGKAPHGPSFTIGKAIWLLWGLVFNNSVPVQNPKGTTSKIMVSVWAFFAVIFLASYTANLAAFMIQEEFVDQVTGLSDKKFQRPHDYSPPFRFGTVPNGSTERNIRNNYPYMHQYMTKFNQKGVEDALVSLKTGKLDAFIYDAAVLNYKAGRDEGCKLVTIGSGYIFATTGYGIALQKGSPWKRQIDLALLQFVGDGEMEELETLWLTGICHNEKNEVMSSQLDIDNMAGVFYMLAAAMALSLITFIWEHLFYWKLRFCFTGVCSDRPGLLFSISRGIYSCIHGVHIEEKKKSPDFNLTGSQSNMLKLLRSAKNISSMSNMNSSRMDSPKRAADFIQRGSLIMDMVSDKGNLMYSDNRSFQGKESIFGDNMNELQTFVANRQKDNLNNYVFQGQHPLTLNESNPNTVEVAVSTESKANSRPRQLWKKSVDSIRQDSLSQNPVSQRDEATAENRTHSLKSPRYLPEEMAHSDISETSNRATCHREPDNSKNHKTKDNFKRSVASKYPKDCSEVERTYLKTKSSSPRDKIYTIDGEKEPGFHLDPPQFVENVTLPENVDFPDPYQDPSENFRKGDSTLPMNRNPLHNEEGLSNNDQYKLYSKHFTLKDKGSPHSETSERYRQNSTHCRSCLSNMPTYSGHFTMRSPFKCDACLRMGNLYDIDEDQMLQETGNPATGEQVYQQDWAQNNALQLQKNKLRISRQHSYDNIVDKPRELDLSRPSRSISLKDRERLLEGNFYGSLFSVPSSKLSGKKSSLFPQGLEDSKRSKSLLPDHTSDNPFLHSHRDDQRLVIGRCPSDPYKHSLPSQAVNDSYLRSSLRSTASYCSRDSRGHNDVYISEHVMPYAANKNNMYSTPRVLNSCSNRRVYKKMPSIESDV
Assay: Positive allosteric modulation of recombinant human GluN1/GluN2A receptor stably expressed in HEK293 cells assessed as increase in glycine/L-glutamate-induced channel current at -70 mV holding potential by IonWork […] method
Format: cell-based
pEC50: −log10 of the molar value.
Rule: fulfilled for pEC50 not less than 7, not fulfilled for anything less.

Could you verify whether the entry C[C@H](CCC(C)(C)O)[C@H]1CC[C@H]2[C@@H]3CC=C4C[C@@](C)(O)CC[C@]4(C)[C@H]3CC[C@]12C shows pEC50 of no less than 7?
not fulfilled

Could you verify whether the entry C[C@H](O)CC[C@@H](C)[C@H]1CC[C@H]2[C@@H]3CC=C4C[C@@](C)(O)CC[C@]4(C)[C@H]3CC[C@]12C shows pEC50 of no less than 7?
not fulfilled

Could you verify whether the entry CC(C)[C@H](O)CC[C@@H](C)[C@H]1CC[C@H]2[C@@H]3CC=C4C[C@@H](O)CC[C@]4(C)[C@H]3CC[C@]12C shows pEC50 of no less than 7?
fulfilled

Could you verify whether the entry CC(O)CC[C@@H](C)[C@H]1CC[C@H]2[C@@H]3CC=C4C[C@@H](O)CC[C@]4(C)[C@H]3CC[C@]12C (stereo partly drawn) shows pEC50 of no less than 7?
not fulfilled

Could you verify whether the entry C[C@H](CCC(C)(C)O)[C@H]1CC[C@H]2[C@@H]3CC=C4C[C@](C)(O)CC[C@]4(C)[C@H]3CC[C@]12C shows pEC50 of no less than 7?
not fulfilled

Could you verify whether the entry C[C@H](CC[C@@H](O)C1CCC1)[C@H]1CC[C@H]2[C@@H]3CC=C4C[C@@](C)(O)CC[C@]4(C)[C@H]3CC[C@]12C shows pEC50 of no less than 7?
not fulfilled

Could you verify whether the entry CC(C)[C@@H](O)CC[C@@H](C)[C@H]1CC[C@H]2[C@@H]3CC=C4C[C@@](C)(O)CC[C@]4(C)[C@H]3CC[C@]12C shows pEC50 of no less than 7?
fulfilled

Could you verify whether the entry C[C@H](CC[C@H](O)C(F)(F)F)[C@H]1CC[C@H]2[C@@H]3CC=C4C[C@@](C)(O)CC[C@]4(C)[C@H]3CC[C@]12C shows pEC50 of no less than 7?
not fulfilled

Could you verify whether the entry C[C@H](CCCC(C)(C)O)[C@H]1CC[C@H]2[C@@H]3CC=C4C[C@@H](O)CC[C@]4(C)[C@H]3CC[C@]12C shows pEC50 of no less than 7?
not fulfilled

Could you verify whether the entry C[C@@H]([C@H]1CC[C@H]2[C@@H]3CC=C4C[C@@H](O)CC[C@]4(C)[C@H]3CC[C@]12C)C(C)(C)O shows pEC50 of no less than 7?
not fulfilled

---

Target: Glutamate NMDA receptor; GRIN1/GRIN2B (Homo sapiens, UniProt Q05586+Q13224)
Experiment: Positive allosteric modulation of recombinant human GluN1/GluN2B receptor stably expressed in HEK293 cells assessed as increase in glycine/L-glutamate-induced channel current at -70 mV holding potential by IonWork […] method
So basically: is EC50 under 0.3 µM? Then 1. Not under? Then -1.

Please check: EC50 for C[C@H](CC[C@@H](O)C1CC1)[C@H]1CC[C@H]2[C@@H]3CC=C4C[C@@](C)(O)CC[C@]4(C)[C@H]3CC[C@]12C , strictly under 0.3 µM or not?
1

Please check: EC50 for C[C@H](CC[C@@H](O)C1CCC1)[C@H]1CC[C@H]2[C@@H]3CC=C4C[C@@](C)(O)CC[C@]4(C)[C@H]3CC[C@]12C , strictly under 0.3 µM or not?
1

Please check: EC50 for CC(C)[C@H](O)CC[C@@H](C)[C@H]1CC[C@H]2[C@@H]3CC=C4C[C@@H](O)CC[C@]4(C)[C@H]3CC[C@]12C , strictly under 0.3 µM or not?
1

Please check: EC50 for C[C@@H]([C@H]1CC[C@H]2[C@@H]3CC=C4C[C@@H](O)CC[C@]4(C)[C@H]3CC[C@]12C)C(C)(C)O , strictly under 0.3 µM or not?
-1

Please check: EC50 for C[C@H](CC[C@@H](O)C(F)(F)F)[C@H]1CC[C@H]2[C@@H]3CC=C4C[C@@](C)(O)CC[C@]4(C)[C@H]3CC[C@]12C , strictly under 0.3 µM or not?
-1

Please check: EC50 for CC[C@H](O)CC[C@@H](C)[C@H]1CC[C@H]2[C@@H]3CC=C4C[C@@](C)(O)CC[C@]4(C)[C@H]3CC[C@]12C , strictly under 0.3 µM or not?
1

Please check: EC50 for C[C@H](CCC1(O)CC1)[C@H]1CC[C@H]2[C@@H]3CC=C4C[C@@](C)(O)CC[C@]4(C)[C@H]3CC[C@]12C , strictly under 0.3 µM or not?
-1

Please check: EC50 for C[C@H](CCCC(C)(C)O)[C@H]1CC[C@H]2[C@@H]3CC=C4C[C@@H](O)CC[C@]4(C)[C@H]3CC[C@]12C , strictly under 0.3 µM or not?
-1

Please check: EC50 for C[C@H](CC[C@H](O)C1CCC1)[C@H]1CC[C@H]2[C@@H]3CC=C4C[C@@](C)(O)CC[C@]4(C)[C@H]3CC[C@]12C , strictly under 0.3 µM or not?
1

Please check: EC50 for CC(C)(O)CCC[C@H]1CC[C@H]2[C@@H]3CC=C4C[C@@](C)(O)CC[C@]4(C)[C@H]3CC[C@]12C , strictly under 0.3 µM or not?
1

Please check: EC50 for C[C@H](CCC1(O)CC1)[C@H]1CC[C@H]2[C@@H]3CC=C4C[C@@H](O)CC[C@]4(C)[C@H]3CC[C@]12C , strictly under 0.3 µM or not?
-1

Please check: EC50 for C[C@H](O)CC[C@@H](C)[C@H]1CC[C@H]2[C@@H]3CC=C4C[C@@](C)(O)CC[C@]4(C)[C@H]3CC[C@]12C , strictly under 0.3 µM or not?
-1

Please check: EC50 for C[C@H](CC[C@@H](C)O)[C@H]1CC[C@H]2[C@@H]3CC=C4C[C@@](C)(O)CC[C@]4(C)[C@H]3CC[C@]12C , strictly under 0.3 µM or not?
-1

Please check: EC50 for C[C@H](CC(C)(C)O)[C@H]1CC[C@H]2[C@@H]3CC=C4C[C@@H](O)CC[C@]4(C)[C@H]3CC[C@]12C , strictly under 0.3 µM or not?
-1

Please check: EC50 for CC(O)CC[C@@H](C)[C@H]1CC[C@H]2[C@@H]3CC=C4C[C@@H](O)CC[C@]4(C)[C@H]3CC[C@]12C (stereo partly drawn) , strictly under 0.3 µM or not?
1

Please check: EC50 for C[C@H](CCCO)[C@H]1CC[C@H]2[C@@H]3CC=C4C[C@@H](O)CC[C@]4(C)[C@H]3CC[C@]12C , strictly under 0.3 µM or not?
-1

Please check: EC50 for CC[C@@H](O)CC[C@@H](C)[C@H]1CC[C@H]2[C@@H]3CC=C4C[C@@](C)(O)CC[C@]4(C)[C@H]3CC[C@]12C , strictly under 0.3 µM or not?
1

Please check: EC50 for C[C@@H](CCC(C)(C)O)[C@H]1CC[C@H]2[C@@H]3CC=C4C[C@@](C)(O)CC[C@]4(C)[C@H]3CC[C@]12C , strictly under 0.3 µM or not?
-1
